Task for the reader: assign each of the following binders its reported IC50.
Molecular target: T1, hPDL1(19-239)-TVMV-His (human, UniProt Q9NZQ7 19-239)
T1 construct: The text says amino acids 18-239, the construct name says 19-239; also called PD-L1-His; PD-L1-TVMV-His
T1 sequence (Q9NZQ7 other isoform, or with tags, fused parts or gaps limits assumed): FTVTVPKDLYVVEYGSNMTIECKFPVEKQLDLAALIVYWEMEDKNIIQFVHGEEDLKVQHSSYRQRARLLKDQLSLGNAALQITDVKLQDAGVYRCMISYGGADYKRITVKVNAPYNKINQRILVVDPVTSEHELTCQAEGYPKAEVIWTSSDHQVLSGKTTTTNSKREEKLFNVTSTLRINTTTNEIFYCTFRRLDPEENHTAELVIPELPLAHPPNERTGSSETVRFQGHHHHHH
Assay: HTRF competition, inhibitor titrated against PD-1-Ig binding to PD-L1-His
Positions of bridges follow the written chain, without caps; N, C: chain ends.
Respond with a number, then the unit of measure.

[in] Sample {CH2CO}-FLIVIRDRVFRCG-NH2 (thioether N-12, Macrocyclic peptide; parent of the Formula III series) [Compound No. 99] — what was its IC50?
[out] 153 nM

More entries:
[in] # input binder: FLIVIRDRFFRCG (HELM PEPTIDE1{[O=C(C[*:3])[*:2]].F.L.I.V.I.R.D.R.F.F.R.C.G.[am]}$PEPTIDE1,PEPTIDE1,1:R3-13:R3$$$V2.0; SMILES CC[C@H](C)[C@@H]1NC(=O)[C@H](CC(C)C)NC(=O)[C@H](Cc2ccccc2)NC(=O)CSC[C@@H](C(=O)NCC(N)=O)NC(=O)[C@H](CCCNC(=N)N)NC(=O)[C@H](Cc2ccccc2)NC(=O)[C@H](Cc2ccccc2)NC(=O)[C@H](CCCNC(=N)N)NC(=O)[C@H](CC(=O)O)NC(=O)[C@H](CCCNC(=N)N)NC(=O)[C@H]([C@@H](C)CC)NC(=O)[C@H](C(C)C)NC1=O, Macrocyclic variant of Compound No. 99) [Compound No. 111] ; wanted: its IC50
[out] 540 nM
